Biological target: T1, MRB1590(10-668) (Trypanosoma brucei, UniProt UPI00067E648B 10-668)
T1 sequence: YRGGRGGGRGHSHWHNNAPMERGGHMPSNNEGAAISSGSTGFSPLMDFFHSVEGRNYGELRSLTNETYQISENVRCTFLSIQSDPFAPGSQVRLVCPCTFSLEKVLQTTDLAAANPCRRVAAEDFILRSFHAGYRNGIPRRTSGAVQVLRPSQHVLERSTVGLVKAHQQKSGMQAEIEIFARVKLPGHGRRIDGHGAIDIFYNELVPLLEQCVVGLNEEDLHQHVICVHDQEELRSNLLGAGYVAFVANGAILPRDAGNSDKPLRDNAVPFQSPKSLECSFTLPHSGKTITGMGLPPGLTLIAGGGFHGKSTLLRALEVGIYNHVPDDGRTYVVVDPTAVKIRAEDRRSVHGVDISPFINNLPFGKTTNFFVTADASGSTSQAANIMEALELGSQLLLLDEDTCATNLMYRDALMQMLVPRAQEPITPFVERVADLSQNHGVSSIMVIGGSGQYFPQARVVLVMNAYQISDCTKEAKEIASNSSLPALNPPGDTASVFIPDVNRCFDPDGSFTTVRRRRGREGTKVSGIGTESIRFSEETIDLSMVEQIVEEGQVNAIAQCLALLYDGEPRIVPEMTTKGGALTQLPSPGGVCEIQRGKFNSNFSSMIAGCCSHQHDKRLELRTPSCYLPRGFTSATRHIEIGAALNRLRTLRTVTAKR
Assay: fluorescence polarization; AMP-PNP (table header says ATP), Mg2+; FP: 20 mM Tris-HCl pH 7.5, 150 mM NaCl, 5% glycerol, 1 mM MgCl2, 2 mM ADP or AMP-PNP, 1 nM 3'-fluoresceinated RNA (heated to 99 C, slow cooled), 25 C
Details: protein: recombinant; chain copies: 2; label: 3' fluorescein
Recorded Metric: pKd
In simple prose, pKd is minus the logarithm base ten of a concentration in moles per litre.

Looking up ACCGCCGUCGCCCGCCCGCCU (ssRNA) [Complement of GC-rich RNA] , I found its pKd recorded as 6.42
